Exercise: state measured IC50 for each of the compounds provided.
Biological target: hOX1R (Homo sapiens, UniProt O43613)
Sequence (O43613 whole entry): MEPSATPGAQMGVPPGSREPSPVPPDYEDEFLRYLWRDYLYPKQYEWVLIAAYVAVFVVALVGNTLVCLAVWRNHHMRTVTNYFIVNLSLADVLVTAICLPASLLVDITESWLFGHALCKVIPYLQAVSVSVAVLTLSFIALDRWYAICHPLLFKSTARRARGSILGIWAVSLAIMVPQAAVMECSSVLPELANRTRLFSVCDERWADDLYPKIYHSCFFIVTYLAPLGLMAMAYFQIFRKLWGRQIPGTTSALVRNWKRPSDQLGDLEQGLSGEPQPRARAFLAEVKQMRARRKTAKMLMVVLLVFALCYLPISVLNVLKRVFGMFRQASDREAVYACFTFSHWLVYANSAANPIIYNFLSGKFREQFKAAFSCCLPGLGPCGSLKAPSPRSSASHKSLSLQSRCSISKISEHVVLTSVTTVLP
Experiment: FLIPR Ca2+ Flux Assay, CHO cells expressing the orexin-1 receptor
Details: agonist 70 pM Ala-6,12 orexin-A
I only need the number, in nM, no unit after it.

If you can, please state the reported IC50 value of COC(=O)c1c(OC)ccnc1N[C@@H]1CC[C@@H](C)N(C(=O)c2ccccc2-n2nccn2)C1 [Example 2] .
53

Entry COC(=O)c1c(OC)ccnc1N[C@@H]1CC[C@@H](C)N(C(=O)c2ccsc2-c2ncccn2)C1 [Example 17] has what IC50?
266

Would you mind telling me what IC50 value was observed for COC(=O)c1c(OC)ccnc1N[C@@H]1CC[C@@H](C)N(C(=O)c2cccc(F)c2-n2nccn2)C1 [Example 4] ?
362

IC50 for COC(=O)c1c(OC)ccnc1N[C@@H]1CC[C@@H](C)N(C(=O)c2c(F)cccc2-n2nccn2)C1 [Example 6] ?
154
